Values were extracted from ChEMBL document CHEMBL5528018.

- procedure-summary: Cytotoxicity against human HeLa cells assessed as cytolytic effect incubated for 72 hrs by methylene blue staining based colorimetric analysis
- Type: toxicity, cell-based
Parameter CC50 at 72 h: see the listing below.

Consider the following illustrative entries.
O=c1nc(N2CCC(Oc3ccc(OC(F)(F)F)cc3)CC2)sc2c([N+](=O)[O-])cc(C(F)(F)F)cc12	> 93 µM
Cc1c(C(F)(F)F)cc2c(=O)nc(N3CCC(Oc4ccc(OC(F)(F)F)cc4)CC3)sc2c1[N+](=O)[O-]	> 91 µM
Cc1c(C(F)(F)F)cc2c(=O)nc(N3CCN(S(=O)(=O)c4ccc(OC(F)(F)F)cc4)CC3)sc2c1[N+](=O)[O-]	> 84 µM
Cc1c(C(F)(F)F)cc2c(=O)nc(N3CCC4(CC3)OC[C@H](C)O4)sc2c1[N+](=O)[O-]	87 µM
C[C@H]1COC2(CCN(c3nc(=O)c4cc(C(F)(F)F)cc([N+](=O)[O-])c4s3)CC2)O1	> 120 µM

Moving on to the next compound.
Query Cc1c(C(F)(F)F)cc([N+](=O)[O-])c2sc(N3CCC(Oc4ccc(OC(F)(F)F)cc4)CC3)nc(=O)c12 yields CC50 at 72 h of > 91 µM

###

- procedure-summary: Cmax in BALB/cAnNCrl mouse at 250 mg/kg, po measured upto 24 hrs by UHPLC-HRMS analysis
- Format: ADME, organism-based
- applied-conditions: in vivo
parameter-measured: Cmax (ng/mL)
Number in ng/mL, nothing else.

Data point: Cc1c(C(F)(F)F)cc([N+](=O)[O-])c2sc(N3CCC4(CC3)OC[C@H](C)O4)nc(=O)c12 ; Cmax = 2410

###

- procedure-summary: Tmax in mouse RAW264.7 cells at 77 uM incubated for 8 hrs by UHPLC-HRMS analysis
- Assay type: ADME, cell-based
parameter-measured: Tmax at 77 µM (h)
API: value field is a number in h; no unit string.

Known Tmax at 77 µM results, listed for orientation:
Cc1c(C(F)(F)F)cc([N+](=O)[O-])c2sc(N3CCC4(CC3)OC[C@H](C)O4)nc(=O)c12	0.17
C[C@H]1COC2(CCN(c3nc(=O)c4cc(C(F)(F)F)cc([N+](=O)[O-])c4s3)CC2)O1	0

API: the following record is the query input.
Item: C[C@H]1COC2(CCN(c3nc(=O)c4cc(C(F)(F)F)cc(N)c4s3)CC2)O1 | Tmax at 77 µM: 8

###

- procedure-summary: Half life in mouse RAW264.7 cells at 77 uM incubated for 8 hrs by UHPLC-HRMS analysis
- Format: ADME, cell-based
parameter-measured: half-life at 77 µM (h)
Output spec: scalar in h, unitless text.

C[C@H]1COC2(CCN(c3nc(=O)c4cc(C(F)(F)F)cc(N)c4s3)CC2)O1	13
Cc1c(C(F)(F)F)cc([N+](=O)[O-])c2sc(N3CCC4(CC3)OC[C@H](C)O4)nc(=O)c12	20.2

Quick note, half-life at 77 µM for C[C@H]1COC2(CCN(c3nc(=O)c4cc(C(F)(F)F)cc([N+](=O)[O-])c4s3)CC2)O1 landed at 2.3

###

- procedure-summary: Selectivity index, ratio of CC50 for cytotoxicity against human HeLa cells to MIC for antitubercular activity against Mycobacterium tuberculosis H37Rv
- Assay type: toxicity, cell-based
- applied-conditions: read-out: Selectivity Index
Here the recorded selectivity ratio is given for each entry.
Form: value (number only, do not type unit).

Below are worked cases with known answers.
O=c1nc(N2CCN(S(=O)(=O)c3ccc(OC(F)(F)F)cc3)CC2)sc2c([N+](=O)[O-])cc(C(F)(F)F)cc12	397
Cc1c(C(F)(F)F)cc([N+](=O)[O-])c2sc(N3CCC(Oc4ccc(OC(F)(F)F)cc4)CC3)nc(=O)c12	100
Cc1c(C(F)(F)F)cc2c(=O)nc(N3CCN(CC4CCCCC4)CC3)sc2c1[N+](=O)[O-]	80
Cc1c(C(F)(F)F)cc2c(=O)nc(N3CCC(Oc4ccc(OC(F)(F)F)cc4)CC3)sc2c1[N+](=O)[O-]	25
Cc1c(C(F)(F)F)c(C)c2c(=O)nc(N3CCC4(CC3)OC[C@H](C)O4)sc2c1[N+](=O)[O-]	21

Short answer for Cc1c(C(F)(F)F)cc([N+](=O)[O-])c2sc(N3CCN(CC4CCCCC4)CC3)nc(=O)c12 : selectivity ratio was 50000

Entry under test: O=c1nc(N2CCN(CC3CCCCC3)CC2)sc2c([N+](=O)[O-])cc(C(F)(F)F)cc12 . Its selectivity ratio was 100000

Entry Cc1c(C(F)(F)F)cc2c(=O)nc(N3CCC4(CC3)OC[C@H](C)O4)sc2c1[N+](=O)[O-] — recorded selectivity ratio = 104

// Cc1c(C(F)(F)F)cc([N+](=O)[O-])c2sc(N3CCN(S(=O)(=O)c4ccc(OC(F)(F)F)cc4)CC3)nc(=O)c12 : selectivity ratio value = 13

Entry under test: C[C@H]1COC2(CCN(c3nc(=O)c4cc(C(F)(F)F)cc([N+](=O)[O-])c4s3)CC2)O1 . Its selectivity ratio was 33300

###

- procedure-summary: Cmax in mouse RAW264.7 cells at 77 uM incubated for 8 hrs by UHPLC-HRMS analysis
- Assay type: ADME, cell-based
Examples of compounds with documented Cmax at 77 µM follow.
Reply with just the number (in µg/mL).

Study these solved cases before continuing.
C[C@H]1COC2(CCN(c3nc(=O)c4cc(C(F)(F)F)cc([N+](=O)[O-])c4s3)CC2)O1 [BTZ-043]	3.95
C[C@H]1COC2(CCN(c3nc(=O)c4cc(C(F)(F)F)cc(N)c4s3)CC2)O1	2

# next compound below
The compound Cc1c(C(F)(F)F)cc([N+](=O)[O-])c2sc(N3CCC4(CC3)OC[C@H](C)O4)nc(=O)c12 showed Cmax at 77 µM equal to 0.504

###

- procedure-summary: Half life in BALB/cAnNCrl mouse at 250 mg/kg, po measured upto 24 hrs by UHPLC-HRMS analysis
- Type: ADME, organism-based
- applied-conditions: in vivo
parameter-measured: half-life (h)
Answer in h, number only, no unit symbol.

Lookup result for Cc1c(C(F)(F)F)cc([N+](=O)[O-])c2sc(N3CCC4(CC3)OC[C@H](C)O4)nc(=O)c12 ; measured half-life: 4.6

###

A collection of compounds and their measured selectivity ratio
- procedure-summary: Selectivity index, ratio of CC50 for cytotoxicity against human HeLa cells to MIC for antitubercular activity against Mycobacterium tuberculosis H37Rv
- Assay type: toxicity, cell-based
- applied-conditions: read-out: Selectivity Index
Reply briefly: the number, and no unit.

Consider the following illustrative entries.
O=c1nc(N2CCC(Oc3ccc(OC(F)(F)F)cc3)CC2)sc2c([N+](=O)[O-])cc(C(F)(F)F)cc12	16700
C#Cc1c(C(F)(F)F)cc([N+](=O)[O-])c2sc(N3CCC4(CC3)OC[C@H](C)O4)nc(=O)c12	1
Cc1c(C(F)(F)F)cc([N+](=O)[O-])c2sc(N3CCC4(CC3)OC[C@H](C)O4)nc(=O)c12	8330

Let us move to another entry and its selectivity ratio.
Per the record, Cc1c(C(F)(F)F)cc2c(=O)nc(N3CCN(S(=O)(=O)c4ccc(OC(F)(F)F)cc4)CC3)sc2c1[N+](=O)[O-] has selectivity ratio of 13
